Recorded values, source patent US6916812B2.

TARGET DESC: cloned human MC4R (Homo sapiens, UniProt P32245)
Construct: made in house; host or cells: Hi5 insect cells (baculovirus infection); membrane preparation
Sequence (P32245 whole entry): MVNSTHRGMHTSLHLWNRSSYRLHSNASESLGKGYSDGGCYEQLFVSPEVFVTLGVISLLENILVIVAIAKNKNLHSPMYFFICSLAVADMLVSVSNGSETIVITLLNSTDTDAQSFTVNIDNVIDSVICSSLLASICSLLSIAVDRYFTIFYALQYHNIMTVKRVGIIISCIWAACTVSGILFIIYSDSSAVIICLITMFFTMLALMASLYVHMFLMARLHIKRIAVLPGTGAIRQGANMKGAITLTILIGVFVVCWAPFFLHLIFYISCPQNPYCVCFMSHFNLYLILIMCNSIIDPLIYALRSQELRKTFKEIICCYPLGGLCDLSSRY
TEST PROTOCOL: Membrane binding assay: competitive inhibition of [125I]NDP-α-MSH binding
TEST CONTEXT: read-out: MC4R IC50
READOUT LABEL: IC50

N[C@@H](Cc1ccc(-c2ccc(C(F)(F)F)cc2)cc1)C(=O)N1CCN(Cc2cccc(Cl)c2Cl)CC1 = < 1500 nM

Query :: Give the reported IC50 for `Cc1ccc(S(=O)(=O)n2cc(CN3CCN(C(=O)[C@@H](N)Cc4ccc(OCc5ccccc5)cc4)CC3)c3ccccc32)cc1` (system: cloned human MC4R (Homo sapiens, UniProt P32245)).
Result :: < 1500 nM

Query :: Checklist item: IC50 tested on cloned human MC4R (Homo sapiens, UniProt P32245), entry `CCCCc1ccc(CN2CCN(C(=O)[C@@H](N)Cc3ccc(OCc4ccccc4)cc3)CC2)cc1` , value?
Result :: < 1500 nM

* * *

TARGET DESC: cloned human MC4R (Homo sapiens)
Construct: made in house; host or cells: Hi5 insect cells (baculovirus infection); membrane preparation
TEST PROTOCOL: Membrane binding assay: competitive inhibition of [125I]NDP-α-MSH binding
TEST CONTEXT: at 10 μM; [125I]NDP-α-MSH displacement; read-out: Displacement Rate (%) (at 10 μM)
Here the recorded inhibition at 10 µM is given for each entry.

Query :: Which value of inhibition at 10 µM has been reported for N[C@@H](Cc1ccc(-c2c(Cl)cccc2Cl)cc1)C(=O)N1CCN(Cc2cccc(Cl)c2Cl)CC1 [Example 324] in the records?
Result :: 91 to 100%

Query :: Any idea what inhibition at 10 µM was measured for COc1cccc(CN2CCCN(C(=O)[C@@H](N)Cc3ccc(OCc4ccccc4)cc3)CC2)c1OC [Example 54] ?
Result :: 35 to 70%

Query :: I am curious: what inhibition at 10 µM value has been reported for N[C@@H](Cc1ccc(OCc2ccccc2)cc1)C(=O)N1CCN(Cc2ccccc2)CC1 [Example 141] ?
Result :: 35 to 70%

* * *

TARGET DESC: cloned human MC4R (Homo sapiens)
Construct: made in house; host or cells: Hi5 insect cells (baculovirus infection); membrane preparation
TEST PROTOCOL: Membrane binding assay: competitive inhibition of [125I]NDP-α-MSH binding
TEST CONTEXT: at 10 μM; [125I]NDP-α-MSH displacement; read-out: Displacement Rate (%) (at 10 μM)
READOUT LABEL: inhibition at 10 µM

Query :: Can you share its inhibition at 10 µM? I mean this molecule: `N[C@@H](Cc1ccc(OCc2ccccc2)cc1)C(=O)N1CCCN(Cc2ccc(C(F)(F)F)cc2F)CC1`
Result :: 71 to 90%

* * *

TARGET DESC: cloned human MC4R (Homo sapiens)
Construct: made in house; host or cells: Hi5 insect cells (baculovirus infection); membrane preparation
TEST PROTOCOL: Membrane binding assay: competitive inhibition of [125I]NDP-α-MSH binding
TEST CONTEXT: at 10 μM; [125I]NDP-α-MSH displacement; read-out: Displacement Rate (%) (at 10 μM)
READOUT LABEL: inhibition at 10 µM

Consider the following illustrative entries.
N[C@@H](Cc1ccc(OCc2ccccc2)cc1)C(=O)N1CCN(Cc2ccc(Br)cc2)CC1 = 35 to 70%
N[C@@H](Cc1ccc(OCc2ccccc2)cc1)C(=O)N1CCCN(Cc2ccc3c(c2)OCCO3)CC1 = 35 to 70%
N[C@@H](Cc1ccc(OCc2ccccc2)cc1)C(=O)N1CCN(Cc2cccc(OCc3ccccc3)c2)CC1 = 91 to 100%
COc1ccc(-c2ccc(C[C@H](N)C(=O)N3CCN(Cc4cccc(Cl)c4Cl)CC3)cc2)cc1 = 91 to 100%
COc1cc(CN2CCN(C(=O)[C@@H](N)Cc3ccc(OCc4ccccc4)cc3)CC2)cc(Br)c1OC = 71 to 90%

Query :: Provide value of inhibition at 10 µM for this record tested with cloned human MC4R (Homo sapiens): `N[C@@H](Cc1ccc(OCc2ccccc2)cc1)C(=O)N1CCCN(C2CCN(Cc3ccccc3)CC2)CC1`
Result :: 35 to 70%

Query :: Lab note: need inhibition at 10 µM for `N[C@@H](Cc1ccc(OCc2ccccc2)cc1)C(=O)N1CCCN(Cc2cccc(Oc3ccc(Cl)c(Cl)c3)c2)CC1` on cloned human MC4R (Homo sapiens), anyone have it?
Result :: 91 to 100%
